Reference for the values: PubChem BioAssay AID743381

Target: Phosphatidylinositol 5-phosphate 4-kinase type-2 alpha (Homo sapiens) (UniProt P48426)
Sequence (P48426 whole entry, looked up): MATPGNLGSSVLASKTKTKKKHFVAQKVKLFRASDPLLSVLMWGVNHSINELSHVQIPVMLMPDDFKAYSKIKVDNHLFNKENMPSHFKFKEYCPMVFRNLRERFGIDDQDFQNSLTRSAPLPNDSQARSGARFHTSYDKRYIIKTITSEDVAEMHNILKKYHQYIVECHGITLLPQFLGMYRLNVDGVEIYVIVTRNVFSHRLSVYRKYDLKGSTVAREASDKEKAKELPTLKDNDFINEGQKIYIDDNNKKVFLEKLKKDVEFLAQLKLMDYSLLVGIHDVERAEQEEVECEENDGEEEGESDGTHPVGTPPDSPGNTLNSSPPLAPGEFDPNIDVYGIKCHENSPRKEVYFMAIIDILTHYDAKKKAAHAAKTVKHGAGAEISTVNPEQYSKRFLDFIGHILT
Experiment: qHTS for Inhibitors of PI5P4K: PI5P4K-alpha Confirmatory Assay for Probe SAR
Details: Purified PI5P4Kalpha, ADP-Glo luminescence, 60 min; series mostly up to 76.9 µM
Results filed as inconclusive are left out. Calls of active or inactive are those of the source. The call rests on the fitted dose curve; in most records, active means well fitted inhibition curve with a large enough effect; inconclusive means small, poorly fitted or top-dose-only effect; inactive means flat fitted curve, though single readings scatter.
Labels: True (active), False (inactive)

{"molecule": "O=C1Nc2ccccc2C12CC2c1cc(Cl)c(O)c(Cl)c1 (stereo not given)", "qualitative.label": "True"}
{"molecule": "Cc1cccc2c1NC(=O)/C2=C/c1cc(Cl)c(O)c(Cl)c1", "qualitative.label": "True"}
{"molecule": "O=C1Nc2ccccc2/C1=C\\c1cc(Br)c(O)c(Br)c1", "qualitative.label": "True"}
{"molecule": "COc1cc(/C=C2/C(=O)Nc3ccccc32)cc(OC)c1O", "qualitative.label": "True"}
{"molecule": "O=C1Nc2cccc(Cl)c2/C1=C\\c1cc(Cl)c(O)c(Cl)c1", "qualitative.label": "True"}
{"molecule": "O=C1Nc2ccccc2/C1=C/c1ccc[nH]1", "qualitative.label": "False"}
{"molecule": "O=C1Nc2ccccc2/C1=C\\c1ccc([N+](=O)[O-])cc1", "qualitative.label": "True"}
{"molecule": "O=C1Nc2ccccc2/C1=C/c1cc(Cl)c(O)c(Cl)c1", "qualitative.label": "True"}
{"molecule": "O=C1Nc2ccccc2/C1=C\\c1ccc(O)c(F)c1", "qualitative.label": "True"}
{"molecule": "O=C1Nc2ccccc2/C1=C\\c1cc(F)c(O)c(F)c1", "qualitative.label": "True"}
